- TARGET: Apical membrane antigen 1 (Plasmodium falciparum (isolate 3D7), UniProt Q7KQK5)
- Sequence (Q7KQK5 whole entry): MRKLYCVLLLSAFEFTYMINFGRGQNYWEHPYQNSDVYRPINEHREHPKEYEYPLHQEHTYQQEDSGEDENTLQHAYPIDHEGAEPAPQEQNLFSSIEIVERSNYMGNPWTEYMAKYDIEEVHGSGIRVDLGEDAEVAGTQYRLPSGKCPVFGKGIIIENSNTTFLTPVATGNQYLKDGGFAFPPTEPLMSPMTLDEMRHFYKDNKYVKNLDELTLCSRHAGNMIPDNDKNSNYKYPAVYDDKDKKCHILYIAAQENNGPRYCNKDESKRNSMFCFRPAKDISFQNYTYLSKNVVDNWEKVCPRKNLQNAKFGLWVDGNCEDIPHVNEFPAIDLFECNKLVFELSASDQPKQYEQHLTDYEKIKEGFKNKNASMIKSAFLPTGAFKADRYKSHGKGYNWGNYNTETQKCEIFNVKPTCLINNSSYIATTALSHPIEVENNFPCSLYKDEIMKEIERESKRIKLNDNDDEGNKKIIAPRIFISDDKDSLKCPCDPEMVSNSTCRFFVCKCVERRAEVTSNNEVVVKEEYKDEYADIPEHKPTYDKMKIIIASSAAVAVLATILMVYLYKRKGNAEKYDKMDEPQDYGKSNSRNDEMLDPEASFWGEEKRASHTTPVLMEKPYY
- EXPERIMENT DESCRIPTION: Binding affinity to recombinant His-tagged Plasmodium falciparum 3D7 AMA1 assessed as inhibition of interaction with biotin-tagged RON2 peptide after 30 mins by AlphaScreen assay
pIC50: −log10 of the molar value. Counter-ions that a name gives are not always drawn.
EXPERIMENTAL ENDPOINT: pIC50

Clc1cccc(C(c2ccc3[nH]cnc3c2)n2ccnc2)c1 (configuration not stated) [LIAROZOLE HYDROCHLORIDE]    4.54
CN(C)CCCN1c2ccccc2C(C)(C)c2ccccc21    4.55

----------
- TARGET: Apical membrane antigen 1 (Plasmodium falciparum (isolate 3D7))
- EXPERIMENT DESCRIPTION: Binding affinity to Plasmodium falciparum 3D7 AMA1 (104 to 442) by SPR analysis
EXPERIMENTAL ENDPOINT: Kd

Completed entries (count: 5):
Cn1cc(-c2ccc(N)cc2)c2c(N)ncnc21    ≥ 1 mM
Cn1cc(-c2ccccc2)c2c(N)ncnc21    ≥ 1 mM
Cn1cc(-c2ccc(F)cc2)c2c(N)ncnc21    ≥ 1 mM
Cn1cc(-c2ccccc2F)c2c(N)ncnc21    ≥ 1 mM
COc1ccc(-c2cn(C)c3ncnc(N)c23)cc1    ≥ 1 mM

Below: the item to evaluate.
Challenge: I am curious: what Kd value has been reported for `Cn1cc(-c2cccc(F)c2)c2c(N)ncnc21` ?
Response given: ≥ 1 mM

----------
- EXPERIMENT DESCRIPTION: Self-aggregating activity of the compound in phosphate buffer at pH 7.4 at 5 to 80 uM by 1D 1H-NMR spectroscopic analysis in absence of Tween 20
- Format: physicochemical
- SETTINGS: pH 7.4, 80 µM
EXPERIMENTAL ENDPOINT: Activity

Completed entries (count: 4):
Nc1ncnc2c1c(-c1ccc(Oc3ccccc3)cc1)cn2C1CCCC1    Active
CN(C)c1ncnc2c1c(-c1ccc(Oc3ccccc3)cc1)cn2C1CCCC1    Active
Cn1cc(-c2ccncc2)c2c(N)ncnc21    Not Active
COc1ccc(-c2cn(C3CCCC3)c3ncnc(N)c23)cc1    Not Active

Challenge: I am curious: what Activity value has been reported for `Cn1cc(-c2cccc(N)c2)c2c(N)ncnc21` ?
Response given: Not Active

Challenge: I am curious: what Activity value has been reported for `Cn1cc(-c2ccccc2)c2c(N)ncnc21` ?
Response given: Not Active

Challenge: I am curious: what Activity value has been reported for `Cn1cc(-c2ccc(N)cc2)c2c(N)ncnc21` ?
Response given: Not Active

----------
- System: Plasmodium falciparum
- EXPERIMENT DESCRIPTION: Antimalarial activity against Plasmodium falciparum FVO schizont infected in RBC assessed as inhibition of merozoite invasion after 3 to 4 hrs by flow cytometric analysis
- Format: functional, organism-based
EXPERIMENTAL ENDPOINT: IC50 (µM)

(A) Nc1ncnc2c1c(-c1ccc(Oc3ccccc3)cc1)cn2C1CCCC1
(B) CN(C)c1ncnc2c1c(-c1ccc(Oc3ccccc3)cc1)cn2C1CCCC1
(C) COc1ccc(-c2cn(C3CCCC3)c3ncnc(N)c23)cc1
Challenge: Order the above compounds by increasing IC50. In your reply, arrange the labels in the requested order.
Response given: B, C, A
(B: 6 µM, C: 9.8 µM, A: 30 µM)
